# Tested on: MCF7
# assay_notes: Cytotoxicity against human MCF7 cells assessed as reduction in cell growth incubated for 72 hrs by SRB assay
# Type: functional, cell-based
# condition_context: MCF7, 72 h
assay_readout: IC50 (nM)
Record the value in nM, omitting the unit from your answer.

-- ask I am curious: what IC50 value has been reported for `O=C(NC(=O)n1c(-c2ccccc2)nc2ccc(Br)cc2c1=O)c1cccc2c(=O)c3ccccc3[nH]c12` ?
-- reply 2900

---

# assay_notes: Cytotoxicity against human KB-ChR-8-5 cells assessed as reduction in cell growth incubated for 7 days in presence of vinblastine
# Assay type: functional, cell-based
# condition_context: KB-ChR-8-5, 168 h
assay_readout: IC50 (µM)
Respond with the bare value in µM.

-- ask Fill in the blank: the reported IC50 of `O=c1c2ccccc2n(CCCCN2CCN(CCO)CC2)c2ccc(Br)cc12` is ____.
-- reply 3.7

---

# System: MCF7
# assay_notes: Cytotoxicity against human wild type MCF7 cells assessed as reduction in cell viability measured after 72 hrs by SRB assay
# Assay type: functional, cell-based
# condition_context: MCF7, 72 h
assay_readout: IC50 (nM)
Lab book: enter the figure in nM, no units written.

-- ask Field request: IC50 | item: `O=C(c1ccc2c(c1)c(=O)c1ccccc1n2CCCCO[N+](=O)[O-])N1CCOCC1`
-- reply 800

---

# Tested on: PC-3
# assay_notes: Antiproliferative activity against human PC-3 cells assessed as reduction in cell viability incubated for 72 hrs by MTT assay
# Type: functional, cell-based
# condition_context: PC-3, 72 h
assay_readout: IC50 (µM)
The figure you give is taken to be in µM; do not add the unit.

-- ask Entry `COc1c(O)ccc2c(=O)c3c(O)cc4c(c3n(C)c12)C=CC(C)(C)O4` , system PC-3: what IC50 was measured?
-- reply 12.5

---

# Test system: WiDr
# assay_notes: Cytotoxicity against human WiDr cells assessed as cell growth inhibition incubated for 72 hrs by SRB assay
# Assay type: functional, cell-based
assay_readout: IC50 (µM)
Reply numerically in µM, unit not repeated.

-- ask Need IC50, item `O=C(NC(=O)n1c(-c2ccccc2)nc2ccc(Br)cc2c1=O)c1cccc2c(=O)c3ccccc3[nH]c12`
-- reply 9.8

---

# Test system: SW1573
# assay_notes: Cytotoxicity against human SW1573 cells assessed as reduction in cell viability incubated for 72 hrs by SRB assay
# Format: functional, cell-based
# condition_context: SW1573, 72 h
assay_readout: IC50 (µM)
Hi! Could you send only the number? It should be in µM, unit omitted.

-- ask Need IC50 of `O=c1c2ccccc2n(CCCCN2CCN(CCO)CC2)c2c(F)cccc12` , thanks.
-- reply 5.1

---

# System: HL-60
# assay_notes: Cytotoxicity against human HL-60 cells assessed as cell growth inhibition incubated for 72 hrs by tryphan blue staining based analysis
# Assay type: functional
# condition_context: HL-60, 72 h
assay_readout: pIC50
Expect pIC50 as a plain number equal to -log10 of the molar concentration.

INSERT INTO assay_data (structure_smiles_string, reported_measurement) VALUES
  ('CCN(CC)CCCCn1c2ccccc2c(=O)c2c(OC(C)=O)cc(OC(C)=O)cc21', 6.35);

Attention now turns to another entry.
-- ask Entry `CCN(CC)CCCCn1c2ccccc2c(=O)c2cc(F)ccc21` has what pIC50?
-- reply 6.29
